Here the recorded GI50 is given for each entry.
system: MDA-MB-231; test: NCI tumour cell line growth inhibition, 48 h
The source made the active and inactive calls. Rule as the data show it: active = GI50 up to about 1.1 µM and inactive = higher.

>>> result("C=C1C(=O)O[C@@H]2C[C@@H](C)[C@@H]3[C@@H](OC4OC(COC(C)=O)C(O)C(O)C4O)CC(=O)[C@@]3(C)C[C@H]12 (some centres undefined)")
"4.36 µM (inactive)"
>>> result("N#CCCN(CCC#N)c1ccc(C(/N=N/c2ccccc2)=N\\c2ccccc2)cc1")
"> 100 µM (inactive)"
>>> result("CN(C)c1ccc(C2SCC(=O)N2NS(=O)(=O)c2cccc(C(=O)O)c2)cc1 (centres undefined)")
"> 100 µM (inactive)"

Query molecule follows.
Would you kindly share the measured GI50 for COc1ccc(C2c3cc4c(cc3OC(N3CCOCC3)C2C)OCO4)c(OC)c1 (centres undefined) ? 8.69 µM (inactive)
